Where do these numbers come from? They come from paper PMC7038937.

- Target Under Test: dsRBD3/4 E110A L113A Q212A Q215A (Homo sapiens, UniProt O95793-2 102-274, E110A;L113A;Q212A;Q215A)
- Sequence (O95793 183-355 E191A/L194A/Q293A/Q296A): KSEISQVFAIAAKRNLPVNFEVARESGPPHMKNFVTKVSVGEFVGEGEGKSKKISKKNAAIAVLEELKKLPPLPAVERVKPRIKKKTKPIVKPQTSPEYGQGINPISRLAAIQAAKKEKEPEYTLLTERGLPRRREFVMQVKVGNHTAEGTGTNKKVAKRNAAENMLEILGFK
- Assay Details: fluorescence anisotropy
Recorded Endpoint: pKd
Give only the number. pKd is defined as minus log10 of concentration in molar units.

I'd like to know its pKd. The binder in question is GGCAGAAGCUGCCUCUUCGGAGGCAGUUUCUGCC (structured_RNA) [top 2/3 ARF1 SBS (sARF1 SBS)]
7.73
